meta.source: patent US20190284136A1

Parameter: IC50. Scope: all listed entries.
Tested on: HIV
Experiment: Table 1 IC50 of the examples (assay method not given; patent concerns inhibiting HIV replication)
Assay type: cell-based
Applied conditions: Human immunodeficiency virus 1
Note: unit nM is implicit; provide only the numeric part.

Cc1cc2c(c(-c3cc(F)c4c(c3C)CCCO4)c1[C@H](OC(C)(C)C)C(=O)O)CCN2C(=O)c1ccc(Cl)cc1F (atropisomer, axis not shown) [Example 138] ... 5

Identify the measured IC50 of CNC(=O)c1ccc(C(=O)N2CCc3c2cc(C)c([C@H](OC(C)(C)C)C(=O)O)c3-c2cc(F)c3c(c2C)CCCO3)cc1 (atropisomer, axis not shown) [Example 95] for HIV.
142

Lookup COc1cc(C(=O)N2CCc3c2cc(C)c([C@H](OC(C)(C)C)C(=O)O)c3-c2cc(F)c3c(c2C)CCCO3)ccc1C [Example 71]
4

Next record, please: COc1cc(-c2c3c(cc(C)c2[C@H](OC(C)(C)C)C(=O)O)N(C(=O)c2ccc(C)nc2)CC3)c(C)c2c1OCCC2 (atropisomer, axis not shown) [Example 193]
9

Now consider Cc1ccc(-c2c3c(cc(C)c2[C@H](OC(C)(C)C)C(=O)O)N(C(=O)NC2CCCCC2)CC3)cc1 [Example 37] and answer again.
80

Also check Cc1cc2c(c(-c3cc(F)c4c(c3C)CCCO4)c1[C@H](OC(C)(C)C)C(=O)O)CCN2C(=O)c1cc(F)ccc1Cl (atropisomer, axis not shown) [Example 150]
8

Do the same for Cc1cc2c(c(-c3cc(F)c4c(c3C)CCCO4)c1[C@H](OC(C)(C)C)C(=O)O)CCN2C(=O)c1cccc2c1OCCC2 (atropisomer, axis not shown) [Example 166] please
4
